# kon listing for each entry below
Molecular target: T1, Human BCMA (human, UniProt Q02223 1-54, limits assumed)
T1 construct: also called huBCMA; B-cell maturation antigen
T1 sequence (looked up): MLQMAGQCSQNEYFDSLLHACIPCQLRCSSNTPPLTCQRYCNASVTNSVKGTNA
Assay: SPR, IgG immobilised, human BCMA analyte
Reply numerically in M⁻¹ s⁻¹, unit not repeated.

| BINDER | UNIT LABEL | kon |
| --- | --- | --- |
| C01_Rd4_6nM_C20 (antibody, V domains shown, IgG) VH: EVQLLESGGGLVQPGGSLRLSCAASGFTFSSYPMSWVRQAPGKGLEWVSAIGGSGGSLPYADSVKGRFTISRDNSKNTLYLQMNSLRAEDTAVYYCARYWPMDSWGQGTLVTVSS VL: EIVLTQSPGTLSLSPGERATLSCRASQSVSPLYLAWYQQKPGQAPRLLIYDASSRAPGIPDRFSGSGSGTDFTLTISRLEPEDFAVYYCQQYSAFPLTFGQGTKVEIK | M⁻¹ s⁻¹ | 6.02e+06 |
| COMBO_Rd4_0.6nM_C14 (antibody, V domains shown, IgG) VH: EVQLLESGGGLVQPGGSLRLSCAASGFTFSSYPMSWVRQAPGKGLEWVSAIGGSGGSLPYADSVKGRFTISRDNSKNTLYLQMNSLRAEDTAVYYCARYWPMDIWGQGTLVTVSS VL: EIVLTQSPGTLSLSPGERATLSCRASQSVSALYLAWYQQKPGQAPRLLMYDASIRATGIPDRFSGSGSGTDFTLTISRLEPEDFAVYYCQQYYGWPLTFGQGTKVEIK | M⁻¹ s⁻¹ | 8.66e+06 |

Okay, next one:
## Input Give the reported value of kon for this record: COMBO_Rd4_6nM_C21 (antibody, V domains shown, IgG) VH: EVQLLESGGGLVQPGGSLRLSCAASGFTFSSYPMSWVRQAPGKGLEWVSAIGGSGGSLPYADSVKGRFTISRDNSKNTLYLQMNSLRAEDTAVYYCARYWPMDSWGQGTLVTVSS VL: EIVLTQSPGTLSLSPGERATLSCRASQSVSAAYLAWYQQKPGQAPRLLMYDASIRATGIPDRFSGSGSGTDFTLTISRLEPEDFAVYYCQQYMCWPLTFGQGTKVEIK
## Output 1.17e+07
